assay.info: Intrinsic clearance, liver microsomes
Assay type: in vitro ADME
assay.conditions: Intrinsic clearance (liver microsomes, human)
property: half-life

Challenge: Look at this compound and give its reported half-life. O=C1N(CCS(=O)(=O)c2ccccc2)Cc2ccccc2[C@@H]2OC(c3ccc(OCCCO)cc3)=N[C@]12Cc1ccccc1 [Compound 1]
Response given: 21 min

---

Test system: P493-6 Myc ON cells
assay.info: Cell viability, CELL TITER GLO, P493-6 Myc ON
Format: cell-based, human
assay.conditions: Table 3; listed as 15^b; read-out: IC50 Myc ON
property: pIC50
// pIC50: -log10(molar conc.)

Challenge: Look at this compound and give its reported pIC50. O=C1N(CCS(=O)(=O)c2ccccc2)Cc2ccccc2[C@@H]2OC(c3ccc(OCCCO)cc3)=N[C@]12Cc1ccccc1 (single isomer, unassigned) [15^a]
Response given: 5.07
